Measured IC50, listed per entry.
- test-target: E. coli β-glucuronidase (Escherichia coli (strain K12))
- experimental-protocol: β-Glucuronidase assay (4MUG hydrolysis, fluorescence)
- condition-parameters: Table 1; compounds from 35,000 compound diversity set library; 50 pM enzyme, 125 uM 4MUG; read-out: IC50, β-Glucuronidase Inhibitory activity of phenoxythiophene sulfonamides
Response body: numeric value in µM, unit text excluded.

Below are worked cases with known answers.
compound: O=[S+]([O-])(NCc1cccc2ccccc12)c1cc(Cl)c(Oc2ccc3c(c2)OCO3)s1 [BRITE-355233]
readout-unit: µM
IC50: 376

compound: COc1ccc2ccc(Oc3ccc([S+](=O)([O-])NCc4cccc5ccccc45)s3)cc2c1 [BRITE-354458]
readout-unit: µM
IC50: 175

compound: COc1cccc(OC)c1Oc1sc([S+](=O)([O-])NCc2cccc3ccccc23)cc1Cl [BRITE-355201]
readout-unit: µM
IC50: 202

compound: CCCOc1ccc(Oc2sc([S+](=O)([O-])NCc3cccc4ccccc34)cc2Cl)cc1 [BRITE-355221]
readout-unit: µM
IC50: 402

compound: O=[S+]([O-])(NCc1cccc2ccccc12)c1cc(Cl)c(Oc2cccc(-c3ccccc3)c2)s1 [BRITE-355180]
readout-unit: µM
IC50: 102

compound: O=[S+]([O-])(NCc1cccc2ccccc12)c1ccc(Oc2ccc(OCc3ccccc3)cc2)s1 [BRITE-355169]
readout-unit: µM
IC50: 153

compound: O=[S+]([O-])(NCc1cccc2ccccc12)c1cc(Cl)c(Oc2ccc3c(c2)CCCC3)s1 [BRITE-355244]
readout-unit: µM
IC50: 123

Bench note: what IC50 did Cc1cc(Oc2sc([S+](=O)([O-])NCc3cccc4ccccc34)cc2Cl)cc(C(C)C)c1 [BRITE-355214] show?
135
